Experiment: yeast display, Sf9 membrane polyspecificity reagent, FACS + sequencing; frameworks hold sequencing errors
measurement name: polyreactivity (PSR sort gate)

seq text	reported
QVQLVESGGGLVQAGGSLSLSCAASGITFVIYVMGWYRQAPGKERELVAAISWIGGSTYYADSVKGRFTISRDYAKNTVYLQMNSLKPEDTAVYYCATDYVVVVSTGYDYWGQGTQVTVSS	low polyreactivity
QVQLVESGGGLVQAGGSLRLSCAASGRTFWYYTMGWYRQAPGKERELVASISRVTSTYYADSVKGRLTISRDNAKNTVYLQMNSLKPEDTAVYYCAADRTRYYVGYRWTGNKMDYWGQGSQVTVSS	low polyreactivity
QVQLVESGEGLVQAGGSLSLSCAASGRIFYAYVMGWYRQAPGKERELVAAIDRRSTYYADSVKRRFTISRDNAKNTVFFQMNSLKPEDTAVYYCAARSTYSYYIRGYWGLGTQVTVSS	high polyreactivity
QVQLVESGGGLVQAGGSLRLSCAASGSIFYDNAMGWYRQAPGKERELVAAISFRGSSTYYADSVKGRFTISRDNAKNTVYLQMNSLKPEDTAVYYCNTDIYVQYGWGQGTQVTVSS	low polyreactivity
QDQLVESGGGLVQAGGSLRLSCAASGRTFPYKAMGWYRQAPGKERELVAAISYAGGRTYYADSVKGRFTISRDTAKNTVYLQMNSLKPEDTAVYYCYALGSGREDDYWGQGTQVTVSS	high polyreactivity
QVQLVESGGGLVQAGGSLRLSCAASGSTIYPNAMGWYRQAPGQERELVAVISSGGSTYYADSVKGRFTISRDNAKNTVYLQMNSLKPEDTAVYYCAADRGTVSYLYSPRAVDYWGQGTQVTVSS	low polyreactivity
QVQLVESGGGLVQAGGSLRLSCAASGRILVDYAMGWYRQAPGKERELVAAITSTGGTTYYADSVKGRFTISRDNAKNTVYLQMNSLKPEDTAVYYCAAKRQDSWGGTYGYWGQGTQVTVSS	low polyreactivity
QVQLVESGGGLVQAGGSLRLSCAASGLIFSYYTMGWYRQAPGKERELVAAISSSAGSTYYADSVKGRCTISRDNAKNTVYCQMNSLKPEDTAVYYCNVRTLVQHHSSYSSRYESWGQGTHVTVSS	high polyreactivity
QVQLVESGGGLVQAGGSLRLSCAASGRIFSHNAMGWYRQAPGKERELVAAITGSGGTTYYADSVKGRFKISRDNAKNTVYLQMNSLKPEDTAVYYCAADWQQLSYVWRSQRRYNYWGQGTQVTVSS	low polyreactivity
QVQLVESGGGLVQAGGIIRLSCDASGSTFVIYAMGWYRQAPGKERELVAVIDYSDDSTYYADSVKGRFTISRDNAKNTGYLQLNSVKPEVTEVYFCAAYVYYAKGSFDYWGQGTQVTVSS	high polyreactivity
QVQLVESGGGLVQAGGSLRLSCAASGSTFGVNAMGWYRQAPGTERELVADISVRTDSTYYADSVKGRVTISRDNAKNTVYLQMNSLKAEDTAVYYCNAGLGIEYDYWGQGTQVSVSS	low polyreactivity

====

Assay: yeast display, Sf9 membrane polyspecificity reagent, FACS + sequencing; frameworks hold sequencing errors

seq text	polyreactivity (PSR sort gate)
QVQLEESGGGLVQAGGSLRLSCAATGILRLNAIGWYRHAPGKEREFVATISRSGGITYYADSVKGRFTISRDNAKNTVYLQMNSLKPEDTAVYYCAKGGYSLYGYWGQGTQVTVSS	high polyreactivity
QVQLVESGGGLVQAGGSLRLTCAASGSTFGYYAMGWNRQATGKERELVASITSDGSTNYADSVKGRFTISRDNAKNTVYLQMNSLKPEDTAVYYCAAYVWRYWHEYDYWGQGTQVTVSS	low polyreactivity
QVQLVESGGGIVQAGGSLRLSCAASGSIFVENAMGWTRQAPGKERELVAAISSDASTNYADSVKGRFTISRDNAKNTVFLQRNSLKPEDTAVYYCAAGYNQHGQYDYWGQGTQVTVSS	low polyreactivity
QVQLVESGGGLVQAGGSLRVSCAASGRIFTQYATGWYRQAPAKEREMVAAINASDGSTYADSVKGRFTISRDNAKNSVYVQMNSLNPEDSAVYYCNVTGGPYDFTRWSDFDHWGQGTQVTVSS	low polyreactivity
QVQLQESGSGLVQAGGSLRLSCAASGNISHYNDMGWYRQAPGKEREPVATINSGSITYYADSVKGRFTISRDNAKNTVYLQMNSLKPEDTAVYYCAVKQHGYFYLDYWGQGTQVTVSS	high polyreactivity
QDQLVESGPGLVQAGGSLRLSCAPSGRIFTVYAMGWYRQAPGKERELVAAIDWSDGSTYYADSVKGRFTISRDNAKNTVYLHMNSLKPEATAVYYCAAETYWVVEYDYWGQGTQVTVSS	high polyreactivity
QVQLVESGGGLVQAGGSLRLSCAASGGTIIGYAMGWYRQAPGKERELVAAITSGGSTYYADSVKGRFTISRDNAKNTVYLQMNSLKPEDTAVYYCAKSYGGLGSIYRFYYWGQGTQVTVSS	low polyreactivity
QVQLVESGGGLVQAGGSLRLSCAASGFTFYKNAMGWYRQAPGKERELVATISSGGSTYYADSVKGRFTISRYNAKNTVYLQLNSLKPEDTAVYYCAARVHHGYYSISYYYWGQGTQVTVSS	high polyreactivity
QVQRVESGRGLFHAGGSLRLSCAASGSIFIWNDMGWYRQAPGKERELVAAITISAGSTSYADSVKGRFTISRDNAKNTVYLQMKSLKPEDTAVYYCAAASWLGAYGYEYDYWGQGTQVTVSS	low polyreactivity
QVQLVESGGGLVQAGGSLRLSCAASGSIFVYYTMGWYRQAPGKVRELVATITFRGNTYYADSVKGRFTISRDNAKNTVYLQMNSLKPEDTAVSYCAATRYGHRYYYRPYEYWGQGTQVTVSS	high polyreactivity
QVQLVESGGGLVQAGGSLRLSCAASGSTFDVNALGWYSQAPGKDRELVAAISWNSGSTYYADSVKGRFTISRDNAKNTVYLQMNSLKPEDTAVYYCAATYGTGRRSKYGYWGQGTQVTVSS	high polyreactivity
